- System: RXF 393 renal
- protocolDetails: NCI tumour cell line growth inhibition, 48 h
readoutLabel: TGI (µM)
Give bare numbers, in µM.

Before answering, review these 2 worked examples.
>  <molecule>
CN(C)C=Nc1ccc2c3c(cccc13)-c1ccccc1-2

>  <unitTag>
µM

>  <TGI>
21

$$$$
>  <molecule>
CCOc1cc2ncc(C#N)c(Nc3ccc(F)c(Cl)c3)c2cc1NC(=O)CC1CCSS1 (stereo not given)

>  <unitTag>
µM

>  <TGI>
3.97

$$$$

Lab note: next molecule to report on.
Query: So what's the measured TGI for this one? O=C1CC(Cl)c2c1csc2Br (stereo not given)
Reply: 34.7

---

- System: UACC-62 melanoma
- protocolDetails: NCI tumour cell line growth inhibition, 48 h
readoutLabel: TGI

>  <molecule>
C=C1CC[C@@H]2C(C)(C)[C@H](O)CC[C@@]2(C)[C@@H]1COc1ccc2ccc(=O)oc2c1

>  <assayTarget>
UACC-62 melanoma

>  <observedResult>
48.4 µM

$$$$

Please supply TGI for each of the following items, keeping them in order.
1. CCOC(=O)Oc1ccc(C(CNC(C)C)OC(=O)OCC)cc1OC(=O)OCC (configuration not stated)
2. COc1ccc(SS(=O)(=O)c2ccc(OC)cc2)cc1
3. N=c1c2c(=S)n(-c3ccccc3)c(=S)n(-c3ccccc3)c2nc(SCCCN2CCCCC2)n1-c1ccccc1

Reply:
1: > 100 µM; 2: 38.5 µM; 3: 3.03 µM

Please supply TGI for each of the following items, keeping them in order.
1. CC(CCc1ccccc1)NCC(O)n1c(/N=N/N(C)C)nc2c1c(=O)n(C)c(=O)n2C (configuration not stated)
2. O=C1CC(Cl)c2c1csc2Br (configuration not stated)
3. COc1ccc(-c2ncnc(-c3ccc(OC)c(OC)c3)n2)cc1OC

Reply:
> 100 µM
29.5 µM
> 100 µM

---

- Tested on: UO-31 renal
- protocolDetails: NCI tumour cell line growth inhibition, 48 h; in the data active = GI50 below about 0.43 µM; inactive = the rest
Thanks in advance; please answer with one of these: class 1 for active, class 0 for inactive

Worked set:
>  <smilesRecord>
O=C1Nc2ccccc2/C1=C/C(=N/c1nnc(-c2ccc(Cl)cc2)s1)c1ccccc1

>  <assayTarget>
UO-31 renal

>  <qualitativeLabel>
class 0

$$$$
>  <smilesRecord>
COc1cc(/C=C\c2cc(/C=C\c3ccc(O)c(OC)c3)n(C(=O)COc3ccc(Cl)cc3Cl)n2)ccc1O

>  <assayTarget>
UO-31 renal

>  <qualitativeLabel>
class 1

$$$$
>  <smilesRecord>
Fc1cc(-c2csc3n[nH]c(=S)n23)c(Cl)cc1Cl

>  <assayTarget>
UO-31 renal

>  <qualitativeLabel>
class 0

$$$$
>  <smilesRecord>
COc1ccc2cnc(N)c(C#Cc3cc(C(=O)Nc4ccc(CN5CCN(C)CC5)c(C(F)(F)F)c4)cnc3C)c2c1

>  <assayTarget>
UO-31 renal

>  <qualitativeLabel>
class 1

$$$$

Now for another entry.
Query: Please share the test call associated with COc1ccc(OC)c(N(CCN2C(=O)c3ccccc3C2=O)C(=O)CCl)c1 .
Reply: class 1

---

- System: MDA-MB-231 breast
- protocolDetails: NCI tumour cell line growth inhibition, 48 h
For each of the molecules below, state its TGI.
Numbers only, in µM.

>  <smilesRecord>
COc1cc(Cl)cc(-c2nn(-c3cccc(NC(=O)c4cccc(C(F)(F)F)c4)c3)cc2-c2ccncc2)c1

>  <TGI / µM>
9.97

$$$$

Lab note: next molecule to report on.
Query: So what's the measured TGI for this one? COc1ccc2c(c1)/C(=C\c1c(-c3ccccc3)nc3n1CCS3)C(=O)N2
Reply: 17.9
